# Average cell viability, HPNE values compiled below
- System: human pancreatic ductal epithelial cells (HPNE); further: test concentration or dose not given here
Ends that are not written are not given here.
reportedMetric: Average cell viability, HPNE

>>> reportedresult("EQGEQN [TaPep15]")
101.30
>>> reportedresult("PPLENT [TaPep39]")
99.87
>>> reportedresult("AQDDLP [TaPep20]")
110.18

* * *

- Tested on: human embryonic kidney cells (HEK293T); further: test concentration or dose not given here
Ends that are not written are not given here.
reportedMetric: Cell viability, HEK293T, Data2

>>> reportedresult("EDGPHGD [TaPep45]")
96.25
>>> reportedresult("LGDDLVK [TaPep19]")
106.37
>>> reportedresult("LQPSLEH [TaPep59]")
99.94
>>> reportedresult("TAEQVA [TaPep33]")
105.05
>>> reportedresult("FTEELE [TaPep32]")
99.56
>>> reportedresult("AKDEKEL [TaPep1]")
98.99
>>> reportedresult("SLEYEFK [TaPep38]")
101.26
>>> reportedresult("AQDDLP [TaPep20]")
99.18
>>> reportedresult("KGYEAV [TaPep5]")
95.30
>>> reportedresult("TDPELV [TaPep60]")
98.99
>>> reportedresult("PPLENT [TaPep39]")
97.19
>>> reportedresult("VARLEA [TaPep9]")
112.15
>>> reportedresult("EPKVLV [TaPep54]")
102.49
>>> reportedresult("EVGMQE [TaPep56]")
101.55
>>> reportedresult("LQPDAGK [TaPep6]")
97.29
>>> reportedresult("YDGTPLN [TaPep11]")
95.68
>>> reportedresult("NNDDEES [TaPep50]")
98.99
>>> reportedresult("HIDELDE [TaPep22]")
94.35
>>> reportedresult("IAVPHEP [TaPep47]")
100.41
>>> reportedresult("TQEVVN [TaPep25]")
98.42
>>> reportedresult("NGDDEEG [TaPep7]")
94.73
>>> reportedresult("TIDDELR [TaPep26]")
98.23
>>> reportedresult("SLEYLP [TaPep35]")
94.35
>>> reportedresult("SNDPVA [TaPep71]")
95.68
>>> reportedresult("DFKEELPK [TaPep42]")
95.30
>>> reportedresult("YAGNAP [TaPep10]")
102.87
>>> reportedresult("FEGDQDA [TaPep18]")
105.99
>>> reportedresult("DQEPVE [TaPep44]")
98.14
>>> reportedresult("KADGNR [TaPep4]")
102.49
>>> reportedresult("LWGPVT [TaPep72]")
95.02
>>> reportedresult("EFPEQN [TaPep17]")
102.97
>>> reportedresult("EQGEQN [TaPep15]")
86.59
>>> reportedresult("DQKVLA [TaPep3]")
84.04
>>> reportedresult("AQSSLS [TaPep40]")
101.26
>>> reportedresult("YQAENKH [TaPep14]")
96.25
>>> reportedresult("VPDELN [TaPep23]")
84.89
>>> reportedresult("VAEDLL [TaPep8]")
95.30

* * *

- Test system: human bronchial epithelial cells (BEAS-2B)
Ends that are not written are not given here.
# Cell viability, BEAS-2B, Data3 values compiled below
reportedMetric: Cell viability, BEAS-2B, Data3

>>> reportedresult("DQEPVE [TaPep44]")
98.90
>>> reportedresult("EQGEQN [TaPep15]")
108.08
>>> reportedresult("VPDELN [TaPep23]")
105.38
>>> reportedresult("FTEELE [TaPep32]")
111.07
>>> reportedresult("IAVPHEP [TaPep47]")
110.17
>>> reportedresult("EVGMQE [TaPep56]")
119.24
>>> reportedresult("AQDDLP [TaPep20]")
94.32
>>> reportedresult("VAEDLL [TaPep8]")
104.89
>>> reportedresult("FEGDQDA [TaPep18]")
100.30
>>> reportedresult("EPKVLV [TaPep54]")
104.09
>>> reportedresult("EDGPHGD [TaPep45]")
94.92
>>> reportedresult("VARLEA [TaPep9]")
110.67
>>> reportedresult("YAGNAP [TaPep10]")
99.80
>>> reportedresult("EEVPITD [TaPep46]")
113.56
>>> reportedresult("KNDESVD [TaPep48]")
98.21
>>> reportedresult("DQKVLA [TaPep3]")
114.06
>>> reportedresult("STGTIR [TaPep51]")
97.81
>>> reportedresult("PTELESD [TaPep41]")
100.20
>>> reportedresult("TDPELV [TaPep60]")
108.47
>>> reportedresult("SLEYLP [TaPep35]")
119.04
>>> reportedresult("SVLEFS [TaPep52]")
108.37
>>> reportedresult("LQPSLEH [TaPep59]")
95.31
>>> reportedresult("AQSSLS [TaPep40]")
93.02
>>> reportedresult("LQDVVE [TaPep24]")
119.34
>>> reportedresult("DAELDK [TaPep34]")
91.92
>>> reportedresult("NNDDEES [TaPep50]")
104.99
>>> reportedresult("AEDNSL [TaPep43]")
113.96
>>> reportedresult("AKDEKEL [TaPep1]")
105.28
>>> reportedresult("EQPLQA [TaPep21]")
95.31
>>> reportedresult("FPEQQD [TaPep16]")
92.32
>>> reportedresult("APEELDA [TaPep36]")
94.22
>>> reportedresult("KADGNR [TaPep4]")
96.31
>>> reportedresult("KGYEAV [TaPep5]")
117.65
>>> reportedresult("LGDDLVK [TaPep19]")
113.06
>>> reportedresult("TQEVVN [TaPep25]")
108.47
>>> reportedresult("LQPDAGK [TaPep6]")
108.57
>>> reportedresult("YQAENKH [TaPep14]")
118.94

Origin of the recorded values: paper PMC12543283
